- System Under Test: human recombinant dopamine D2L receptor (Homo sapiens, UniProt P14416)
- Construct: expressed in transfected cells; host or cells: CHO cells
- Sequence (P14416 whole entry): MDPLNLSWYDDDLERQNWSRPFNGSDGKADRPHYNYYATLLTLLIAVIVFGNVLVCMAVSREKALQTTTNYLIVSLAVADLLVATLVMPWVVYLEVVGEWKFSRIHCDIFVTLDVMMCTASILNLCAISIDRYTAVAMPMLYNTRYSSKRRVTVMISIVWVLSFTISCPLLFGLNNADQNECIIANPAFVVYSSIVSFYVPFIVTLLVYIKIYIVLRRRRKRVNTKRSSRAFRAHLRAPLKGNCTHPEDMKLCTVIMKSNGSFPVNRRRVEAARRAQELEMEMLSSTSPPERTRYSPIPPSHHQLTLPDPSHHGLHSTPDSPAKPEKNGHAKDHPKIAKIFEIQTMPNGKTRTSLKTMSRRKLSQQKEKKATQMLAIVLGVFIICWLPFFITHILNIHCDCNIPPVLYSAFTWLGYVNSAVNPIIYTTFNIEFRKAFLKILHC
- Test Name: Dopamine D2L radioligand binding ([3H]Spiperone)
- Measurement Setup: percent inhibition of specific binding
Recorded measurements of Inhibition of ligand binding, Dop. D2L, one per entry
Recorded Metric: Inhibition of ligand binding, Dop. D2L

{"Entry Smiles": "CC(C)N1CCN(C(=O)Cn2c3c(c4cc(Cl)ccc42)CN(C)CC3)CC1", "Result": "2%"}
{"Entry Smiles": "CN1CCc2c(c3cc(Cl)ccc3n2CCc2ccncc2)C1", "Result": "62%"}
{"Entry Smiles": "Cc1ccc2c(c1)c1c(n2CCCc2ccc(C(F)(F)F)nc2)CCN(C)C1", "Result": "20%"}
{"Entry Smiles": "Cc1ccc2c(c1)c1c(n2CCc2ccccc2)CCN(C)C1", "Result": "87%"}
{"Entry Smiles": "Cc1ccc2c(c1)c1c(n2CC(=O)N2CCOCC2)CCN(C)C1", "Result": "−8%"}
{"Entry Smiles": "CCc1ccc2c(c1)c1c(n2CCc2cnc(C)cn2)CCN(C)C1", "Result": "29%"}
{"Entry Smiles": "Cc1ccc(CCn2c3c(c4cc(C)ccc42)CN(C)CC3)cc1", "Result": "94%"}

====

- System Under Test: human recombinant adrenergic α1D receptor (Homo sapiens, UniProt P25100)
- Construct: expressed in transfected cells; host or cells: HEK-293 cells
- Sequence (P25100 1-572): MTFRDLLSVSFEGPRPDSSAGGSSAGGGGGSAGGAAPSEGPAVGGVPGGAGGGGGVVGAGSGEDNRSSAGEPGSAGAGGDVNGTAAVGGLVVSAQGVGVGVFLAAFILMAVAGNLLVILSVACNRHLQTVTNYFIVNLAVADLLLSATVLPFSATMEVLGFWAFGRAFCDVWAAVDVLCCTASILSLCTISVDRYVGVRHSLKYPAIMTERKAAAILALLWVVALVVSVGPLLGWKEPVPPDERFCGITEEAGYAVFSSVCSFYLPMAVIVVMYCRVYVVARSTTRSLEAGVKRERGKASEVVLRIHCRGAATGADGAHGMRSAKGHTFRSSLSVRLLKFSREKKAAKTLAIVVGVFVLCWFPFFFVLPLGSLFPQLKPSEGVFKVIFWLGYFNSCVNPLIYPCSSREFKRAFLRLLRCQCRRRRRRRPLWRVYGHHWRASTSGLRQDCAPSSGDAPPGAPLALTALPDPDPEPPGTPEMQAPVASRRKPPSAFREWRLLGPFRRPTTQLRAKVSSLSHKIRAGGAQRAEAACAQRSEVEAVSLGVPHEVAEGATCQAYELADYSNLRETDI
- Test Name: Adrenergic α1D radioligand binding ([3H]Prozosin)
- Set-up: concentration or dose not given beside the values
- Measurement Setup: percent inhibition of specific binding
Below, each entry is listed alongside its reported Inhibition of ligand binding, Adren. alpha1D.
Recorded Metric: Inhibition of ligand binding, Adren. alpha1D (%)

{"Entry Smiles": "CCc1ccc(CCn2c3c(c4cc(Cl)ccc42)CN(C)CC3)cn1", "Units Symbol": "%", "Result": 88}
{"Entry Smiles": "CN1CCc2c(c3c(Cl)cccc3n2CCC2CCCCC2)C1", "Units Symbol": "%", "Result": 15}
{"Entry Smiles": "Cc1ccc(CCn2c3c(c4cc(C(C)C)ccc42)CN(C)CC3)cn1", "Units Symbol": "%", "Result": 88}
{"Entry Smiles": "CN1CCc2c(c3cc(Cl)ccc3n2CCc2ccccn2)C1", "Units Symbol": "%", "Result": 68}
{"Entry Smiles": "CN1CCc2c(c3ccc(Cl)cc3n2CCc2ccccc2)C1", "Units Symbol": "%", "Result": 64}
{"Entry Smiles": "Cc1ccc(CCn2c3c(c4cc(C(=O)O)ccc42)CNCC3)cn1", "Units Symbol": "%", "Result": "−16"}
{"Entry Smiles": "Cc1ccc2c(c1)c1c(n2CCc2ccccc2F)CCN(C)C1", "Units Symbol": "%", "Result": 76}
{"Entry Smiles": "Cc1cccc2c3c(n(CCc4ccc(C(F)(F)F)nc4)c12)CCN(C)C3", "Units Symbol": "%", "Result": 73}
{"Entry Smiles": "CCc1ccc2c(c1)c1c(n2CCc2ccc(C(F)(F)F)nc2)CCN(C)C1", "Units Symbol": "%", "Result": 95}
{"Entry Smiles": "Cc1ccc(CCn2c3c(c4cc(Cl)ccc42)CN(c2cccc(C(F)(F)F)c2)CC3)cn1", "Units Symbol": "%", "Result": 19}
{"Entry Smiles": "Cc1ccc2c(n1)c1c(n2CCc2ccc(C(F)(F)F)nc2)CCN(C)C1", "Units Symbol": "%", "Result": 11}
{"Entry Smiles": "CN1CCc2c(c3ccc(Cl)cc3n2CCC2CCCCC2)C1", "Units Symbol": "%", "Result": 8}
{"Entry Smiles": "Cc1ccc(CCn2c3c(c4cc(Cl)ccc42)CN(C)CC3)cn1", "Units Symbol": "%", "Result": 86}
{"Entry Smiles": "CN1CCc2c(c3cc(Cl)ccc3n2CC(=O)N2CCNCC2)C1", "Units Symbol": "%", "Result": 12}
{"Entry Smiles": "Cc1ccc(CCn2c3c(c4ccccc42)CN(C)CC3)cc1", "Units Symbol": "%", "Result": 76}
{"Entry Smiles": "CCN1CCc2c(c3cc(C)ccc3n2CCc2ccccn2)C1", "Units Symbol": "%", "Result": 61}
{"Entry Smiles": "Cc1ccc2c(c1)c1c(n2CCc2cnc(C)nc2)CCN(C)C1", "Units Symbol": "%", "Result": 49}
{"Entry Smiles": "CN1CCc2c(c3cc(Cl)ccc3n2CC(=O)N2CCSCC2)C1", "Units Symbol": "%", "Result": 3}
{"Entry Smiles": "CN1CCc2c(c3cc(Cl)ccc3n2CC(=O)N2CCNC(=O)C2)C1", "Units Symbol": "%", "Result": 12}

====

- System Under Test: human recombinant histamine H2 receptor (Homo sapiens)
- Construct: expressed in transfected cells; host or cells: CHO-K1 cells
- Sequence (P25021 whole entry): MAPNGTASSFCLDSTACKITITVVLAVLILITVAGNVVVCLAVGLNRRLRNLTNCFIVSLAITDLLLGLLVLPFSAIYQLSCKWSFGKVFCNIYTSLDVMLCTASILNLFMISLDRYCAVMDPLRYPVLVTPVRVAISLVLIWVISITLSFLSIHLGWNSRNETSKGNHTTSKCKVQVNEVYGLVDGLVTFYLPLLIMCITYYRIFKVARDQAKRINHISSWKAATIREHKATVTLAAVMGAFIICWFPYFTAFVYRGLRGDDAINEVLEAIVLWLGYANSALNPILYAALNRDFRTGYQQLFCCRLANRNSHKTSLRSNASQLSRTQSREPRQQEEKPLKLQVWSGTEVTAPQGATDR
- Test Name: Histamine H2 radioligand binding ([125I]Aminopotentidine)
- Measurement Setup: percent inhibition of specific binding; screened at 1 μM; read-out: Inhibition of ligand binding, Hist. H2

{"Compound": "CN1CCc2c(c3cc(Cl)ccc3n2CCc2ccc(F)cc2)C1", "Units Symbol": "%", "inhibition at 1 µM": 94}
{"Compound": "CCN1CCc2c(c3ccccc3n2Cc2ccccc2)C1", "Units Symbol": "%", "inhibition at 1 µM": 3}
{"Compound": "Cc1cnc(CCn2c3c(c4cc(Cl)ccc42)CN(C)CC3)cn1", "Units Symbol": "%", "inhibition at 1 µM": 31}
{"Compound": "CC1CCCCN1C(=O)Cn1c2c(c3cc(Cl)ccc31)CN(C)CC2 (centres unmarked)", "Units Symbol": "%", "inhibition at 1 µM": 25}
{"Compound": "Cc1cncc(CCn2c3c(c4cc(C)ccc42)CN(C)CC3)c1", "Units Symbol": "%", "inhibition at 1 µM": 68}

====

- System Under Test: human recombinant serotonin (5-Hydroxytryptamine) 5-HT2C receptor (Homo sapiens, UniProt P28335)
- Construct: expressed in transfected cells; host or cells: CHO-K1 cells
- Sequence (P28335 33-458): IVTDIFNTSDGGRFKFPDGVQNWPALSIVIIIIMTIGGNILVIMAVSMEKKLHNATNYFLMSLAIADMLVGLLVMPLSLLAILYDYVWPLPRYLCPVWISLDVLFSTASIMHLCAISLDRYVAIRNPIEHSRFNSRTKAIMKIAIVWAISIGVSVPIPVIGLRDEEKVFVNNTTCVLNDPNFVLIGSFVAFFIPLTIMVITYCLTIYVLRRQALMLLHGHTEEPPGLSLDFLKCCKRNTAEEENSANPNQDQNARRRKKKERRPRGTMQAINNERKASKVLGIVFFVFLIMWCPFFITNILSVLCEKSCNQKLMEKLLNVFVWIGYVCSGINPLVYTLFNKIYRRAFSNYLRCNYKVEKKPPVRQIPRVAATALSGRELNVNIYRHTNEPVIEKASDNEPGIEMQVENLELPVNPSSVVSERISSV
- Test Name: Serotonin 5-HT2C radioligand binding ([3H]Mesulergine)
- Measurement Setup: compounds screened at 1 μM; read-out: Inhibition of ligand binding, Ser. 5-HT2C (percent inhibition of specific binding)
Known inhibition at 1 µM of a selection of compounds
Recorded Metric: inhibition at 1 µM (%)

{"Entry Smiles": "Cc1ccc(CCn2c3c(c4cc(I)ccc42)CN(C)CC3)cn1", "Units Symbol": "%", "Result": 91}
{"Entry Smiles": "CN1CCc2c(c3cc(I)ccc3n2CC(=O)N2CCCCC2)C1", "Units Symbol": "%", "Result": 31}
{"Entry Smiles": "CN1CCc2c(c3ncccc3n2CCc2ccncc2)C1", "Units Symbol": "%", "Result": 17}
{"Entry Smiles": "CN1CCc2c(c3ccncc3n2CCc2ccccn2)C1", "Units Symbol": "%", "Result": 20}
{"Entry Smiles": "CN1CCc2c(c3cc(F)ccc3n2CCc2nc(-c3ccccc3)cs2)C1", "Units Symbol": "%", "Result": 91}
